melting point listing for selected compounds.
Structures can show the parent of a compound that is named as a salt.
Provide the reading as a plain figure in °C.

>>> print(df.to_string())
                                   compound  result_number
0  c1cncc(CNc2ccc(NCCc3c[nH]c4ccccc34)cc2)c1 (as salt: hydrochloric acid salt)            130
1  N#Cc1ccc2[nH]cc(C(O)C(=O)Nc3ccc(Nc4ccncc4)cc3)c2c1 (stereo not shown)            154
2  c1ccc2c(CCNc3ccc(CNc4ccncc4)cc3)c[nH]c2c1            122

The compound CCOc1cc(Nc2ccncc2)ccc1NCCc1c[nH]c2ccccc12 (as salt: hydrochloric acid salt) showed melting point equal to 150

// melting point value for c1cncc(Nc2ccc(NCCc3c[nH]c4ccccc34)cc2)c1 (as salt: HCl) : 160

compound c1ccc2c(CCNc3ccc(NCc4ccncc4)cc3)c[nH]c2c1 (as salt: salt) , melting point observed: 132

melting point measured on O=c1cc(Nc2ccc(NCCc3c[nH]c4ccccc34)cc2)c2ccccc2[nH]1 = 238

melting point for COc1ccc2c(CNc3ccc(Nc4ccncc4)cc3)c[nH]c2c1 is 145

get_value(item= CCOc1cc(Nc2ccnc3c2CCC3O)ccc1NCCc1c[nH]c2cc(OC)ccc12 (stereo not shown) , readout=melting point) returns 194

The compound c1ccc2c(CCNc3ccc(Nc4ncnc5[nH]ccc45)cc3)c[nH]c2c1 showed melting point equal to 211

* * *

Where a name gives a salt, the structure may show the parent alone.
# key: entry, value: melting point
// return numeric value only (unit: °C, not printed)

>>> print(df.to_string())
                                   molecule  reported_endpoint  unit_descriptor  result_number
0  OC1CCCc2c(Nc3ccc(NCCc4c[nH]c5ccccc45)cc3)ccnc21 (stereo not shown) [Compound 111]      melting point               °C            104

The reported melting point of the molecule c1ccc2c(CCNc3ccc(Nc4ccnc(-c5nnn[nH]5)c4)cc3)c[nH]c2c1 [Compound 87] was 210

melting point reported for this molecule O=C(CCc1c[nH]c2ccccc12)Nc1ccc(Nc2ccncc2)cc1 [Compound 8] : 208

The reported melting point of the molecule c1ccc2c(Nc3ccc(NCCc4c[nH]c5ccccc45)cc3)ccnc2c1 (as salt: HCl) [Compound 1] was 170

* * *

Counter-ions that a name gives are not always drawn.
Each entry below carries its recorded melting point.

>>> df
                                   compound         result
0  c1ccc(-c2noc(-c3cc(Nc4ccc(NCCc5c[nH]c6ccccc56)cc4)ccn3)n2)cc1 [Compound 107]  170 to 174 °C
1  Cn1cc(CCN(c2ccncc2)c2ccc(Nc3ccncc3)cc2)c2ccccc21 (as salt: hydrochloric acid salt) [Compound 10]       > 250 °C

The compound listed as c1ccc(Cc2noc(-c3cc(Nc4ccc(NCCc5c[nH]c6ccccc56)cc4)ccn3)n2)cc1 [Compound 108] has a reported melting point of 159 to 161 °C
